molecular target: GluN2B glutamate receptors (Homo sapiens (Human), UniProt Q05586+Q13224); experiment: Whole-cell patch clamp of mammalian cells (Ionworks Barracuda), positive allosteric modulation, GluN2B; type: cell-based
Sequence (Q13224 27-1484, other chains not shown): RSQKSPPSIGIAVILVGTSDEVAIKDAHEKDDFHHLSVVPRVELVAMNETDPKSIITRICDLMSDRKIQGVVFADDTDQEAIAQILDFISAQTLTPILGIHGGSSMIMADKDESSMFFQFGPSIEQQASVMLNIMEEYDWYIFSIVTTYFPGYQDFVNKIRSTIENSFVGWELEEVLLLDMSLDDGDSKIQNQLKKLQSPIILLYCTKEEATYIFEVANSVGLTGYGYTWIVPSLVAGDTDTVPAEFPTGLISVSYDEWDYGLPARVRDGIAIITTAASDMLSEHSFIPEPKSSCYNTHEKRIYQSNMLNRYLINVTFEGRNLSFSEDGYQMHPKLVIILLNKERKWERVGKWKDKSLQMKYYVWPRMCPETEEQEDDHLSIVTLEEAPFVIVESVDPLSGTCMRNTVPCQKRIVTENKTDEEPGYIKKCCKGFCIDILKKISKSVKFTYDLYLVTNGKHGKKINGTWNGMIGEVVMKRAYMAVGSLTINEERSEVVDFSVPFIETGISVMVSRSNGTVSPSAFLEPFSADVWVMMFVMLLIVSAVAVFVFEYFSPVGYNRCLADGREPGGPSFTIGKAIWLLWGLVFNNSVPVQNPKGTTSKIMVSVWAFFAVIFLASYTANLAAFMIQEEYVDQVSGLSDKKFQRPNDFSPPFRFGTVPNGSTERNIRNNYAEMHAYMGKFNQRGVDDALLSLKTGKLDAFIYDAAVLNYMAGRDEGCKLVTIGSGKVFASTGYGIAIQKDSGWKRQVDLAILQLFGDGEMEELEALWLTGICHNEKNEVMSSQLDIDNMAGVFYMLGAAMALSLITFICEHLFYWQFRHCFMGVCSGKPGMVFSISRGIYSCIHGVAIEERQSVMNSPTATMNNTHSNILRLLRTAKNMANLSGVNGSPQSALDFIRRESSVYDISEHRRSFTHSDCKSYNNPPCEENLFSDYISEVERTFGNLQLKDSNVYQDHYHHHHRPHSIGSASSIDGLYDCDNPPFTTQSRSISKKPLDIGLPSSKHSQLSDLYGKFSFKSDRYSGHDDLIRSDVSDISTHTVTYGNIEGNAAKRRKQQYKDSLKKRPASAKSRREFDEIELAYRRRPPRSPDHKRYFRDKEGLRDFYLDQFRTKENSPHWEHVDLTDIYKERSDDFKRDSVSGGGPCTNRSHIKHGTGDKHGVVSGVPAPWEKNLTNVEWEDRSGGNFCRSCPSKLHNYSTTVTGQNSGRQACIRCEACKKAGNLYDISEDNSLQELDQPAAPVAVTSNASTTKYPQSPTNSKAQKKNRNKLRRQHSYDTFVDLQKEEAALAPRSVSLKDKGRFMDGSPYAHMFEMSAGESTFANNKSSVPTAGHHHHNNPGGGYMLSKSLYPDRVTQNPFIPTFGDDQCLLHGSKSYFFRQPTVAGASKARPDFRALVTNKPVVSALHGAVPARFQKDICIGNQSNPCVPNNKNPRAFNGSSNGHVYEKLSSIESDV
For each entry below, report its pEC50 value.
Lab note — pEC50 values are minus log10 of concentrations in M.

Task item: Request: pEC50, test system GluN2B glutamate receptors (Homo sapiens (Human), UniProt Q05586+Q13224), entry CC[C@]1(O)CC[C@@]2(C)C(=CC[C@H]3[C@@H]4CC[C@H]([C@H](C)CCC(O)Cc5ccccc5)[C@@]4(C)CC[C@@H]32)C1 (some centres unmarked)
Reply: 5.80

Task item: C[C@H](CCC(O)C1CCOCC1)[C@H]1CC[C@H]2[C@@H]3CC[C@H]4C[C@](O)(C(F)(F)F)CC[C@]4(C)[C@H]3CC[C@]12C (some centres unmarked) ?
Reply: 6.63

Task item: `C[C@H](O)CC[C@@H](C)[C@H]1CC[C@H]2[C@@H]3CC=C4C[C@](O)(C(F)(F)F)CC[C@]4(C)[C@H]3CC[C@]12C` ?
Reply: 6.55

Task item: Another compound: `CC[C@]1(O)CC[C@@]2(C)[C@@H](CC[C@@H]3[C@@H]2CC[C@]2(C)[C@@H]([C@H](C)CC[C@@H](O)c4ccccc4)CC[C@@H]32)C1`
Reply: 6.57
